EXPERIMENT_DESCRIPTION: Half-life in Sprague-Dawley rat at 3 mg/kg, iv by LC-MS/MS analysis
Format: ADME, organism-based
EXPERIMENTAL_PARAMETERS: in vivo
READOUT_LABEL: half-life
Express the reported value numerically, then name its unit.

Q: Look up half-life: Cc1cc(Nc2nc(NCc3ccc(F)cc3F)nc3c2cnn3C2CCOCC2)n[nH]1
A: 1.05 h

====

TESTED_ON: Serine/threonine-protein kinase PLK4 (Homo sapiens)
Sequence (O00444 whole entry): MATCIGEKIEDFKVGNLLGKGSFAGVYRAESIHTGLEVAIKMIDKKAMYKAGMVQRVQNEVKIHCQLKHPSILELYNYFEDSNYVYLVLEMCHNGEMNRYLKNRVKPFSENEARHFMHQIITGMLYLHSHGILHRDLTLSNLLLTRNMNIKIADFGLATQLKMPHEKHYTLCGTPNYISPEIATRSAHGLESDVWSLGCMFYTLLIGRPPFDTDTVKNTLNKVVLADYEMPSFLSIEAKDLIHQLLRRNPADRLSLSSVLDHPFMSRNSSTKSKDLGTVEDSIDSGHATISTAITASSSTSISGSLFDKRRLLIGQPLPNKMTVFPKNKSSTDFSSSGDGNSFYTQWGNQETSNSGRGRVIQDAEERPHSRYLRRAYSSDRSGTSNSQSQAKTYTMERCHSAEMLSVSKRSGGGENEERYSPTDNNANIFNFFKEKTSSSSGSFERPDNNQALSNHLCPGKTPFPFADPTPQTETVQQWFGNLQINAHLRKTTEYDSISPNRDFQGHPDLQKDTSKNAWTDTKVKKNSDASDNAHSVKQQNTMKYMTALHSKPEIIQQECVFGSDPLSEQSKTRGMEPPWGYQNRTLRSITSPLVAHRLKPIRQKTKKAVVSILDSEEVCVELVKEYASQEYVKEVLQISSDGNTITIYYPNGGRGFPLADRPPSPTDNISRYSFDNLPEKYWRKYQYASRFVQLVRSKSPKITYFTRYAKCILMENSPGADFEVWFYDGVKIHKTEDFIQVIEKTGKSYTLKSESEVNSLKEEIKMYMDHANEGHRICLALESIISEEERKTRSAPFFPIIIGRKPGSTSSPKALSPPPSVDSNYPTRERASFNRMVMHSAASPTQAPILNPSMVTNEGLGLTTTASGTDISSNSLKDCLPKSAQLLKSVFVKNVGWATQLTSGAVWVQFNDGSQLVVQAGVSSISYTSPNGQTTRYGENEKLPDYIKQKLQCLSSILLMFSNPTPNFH
EXPERIMENT_DESCRIPTION: Inhibition of recombinant human PLK4 incubated for 60 mins by Lanthascreen Eu kinase binding assay
So I've got a bunch of compounds here, and I need their pIC50 values.
One number for each entry, as −log10 of the molar value.

Cc1cc(Nc2nc(NCc3ccccc3Br)nc3[nH]ncc23)n[nH]1    8.06
Cc1cc(Nc2nc(NCc3ccc(F)cc3F)nc3c2cnn3C2CCNCC2)n[nH]1    9.15
Cc1cc(Nc2nc(NCc3ccc(Cl)cc3)nc3c2cnn3-c2ccc(F)cc2)n[nH]1    6.62
Cc1cc(Nc2nc(NCc3ccc(F)cc3F)nc3c2cnn3C(C)C)n[nH]1    8.96

Q: What measured pIC50 is associated with Cc1cc(Nc2nc(NCc3ccc(Cl)cc3)nc3c2cnn3C)n[nH]1 on Serine/threonine-protein kinase PLK4 (Homo sapiens)?
A: 7.69
